test system: Staphylococcus sp.; assay: In vitro antibacterial evaluation: minimum inhibitory concentration (MIC), broth dilution method; type: cell-based; details: strain GC 4546
Measured Parameter: MIC Staphylococcus haemolyticus (GC 4546) (µg/mL)
Numbers only, in µg/mL.

Worked set:
• CC(c1ccc(Cl)cc1)C1NC(=O)CNC(=O)C(CO)NC(=O)C(C(O)C2CNC(=N)N2C2OC(CO)C(O)C(O)C2O)NC(=O)C(C(O)C2CNC(=N)N2)NC(=O)C(Cc2ccc(OC3OC(CO)C(OC4OC5COC(C6CCCCC6)OC5C(O)C4O)C(O)C3O)cc2)NC1=O (stereo not shown) [Example 193] = 0.5
• COc1ccc(Oc2cccc(C3OCC4OC(OC5C(CO)OC(Oc6ccc(CC7NC(=O)C(C(C)c8ccccc8)NC(=O)CNC(=O)C(CO)NC(=O)C(C(O)C8CNC(=N)N8C8OC(CO)C(O)C(O)C8O)NC(=O)C(C(O)C8CNC(=N)N8)NC7=O)cc6)C(O)C5O)C(O)C(O)C4O3)c2)cc1 (stereo not shown) [Example 180] = 2

Turning now to a further record.
So the reported MIC Staphylococcus haemolyticus (GC 4546) for CC(c1ccccc1)C1NC(=O)CNC(=O)C(CO)NC(=O)C(C(O)C2CNC(=N)N2C2OC(CO)C(O)C(O)C2O)NC(=O)C(C(O)C2CNC(=N)N2)NC(=O)C(Cc2ccc(OC3OC(CO)C(OC4OC5COC(C)(c6ccc(F)cc6)OC5C(O)C4O)C(O)C3O)cc2)NC1=O (stereo not shown) [Example 216] , on Staphylococcus sp., turned out to be 1

###

tested on: Streptococcus sp.; assay: In vitro antibacterial evaluation: minimum inhibitory concentration (MIC), broth dilution method; type: cell-based; conditions: strain GC 4564
Measured Parameter: MIC Streptococcus agalactiae (GC 4564) (µg/mL)
Answers are plain numbers, in µg/mL.

- CC(c1ccccc1)C1NC(=O)CNC(=O)C(CO)NC(=O)C(C(O)C2CNC(=N)N2C2OC(CO)C(O)C(O)C2O)NC(=O)C(C(O)C2CNC(=N)N2)NC(=O)C(Cc2ccc(OC3OC(CO)C(OC4OC5COC(c6ccc(S(C)(=O)=O)cc6)OC5C(O)C4O)C(O)C3O)cc2)NC1=O (stereo not shown): 16

Turning now to a further record.
The measured MIC Streptococcus agalactiae (GC 4564) associated with CC(c1ccccc1)C1NC(=O)CNC(=O)C(CO)NC(=O)C(C(O)C2CNC(=N)N2C2OC(CO)C(O)C(O)C2O)NC(=O)C(C(O)C2CNC(=N)N2)NC(=O)C(Cc2ccc(OC3OC(CO)C(OC4OC5COC(c6ccc7c(c6)OCCO7)OC5C(O)C4O)C(O)C3O)cc2)NC1=O (stereo not shown) reads 1

###

tested on: Streptococcus sp.; assay: In vitro antibacterial evaluation: minimum inhibitory concentration (MIC), broth dilution method; assay type: cell-based; conditions: Streptococcus pneumoniae (ATCC 6301); 18 hours at 35° C.
I'd be grateful if you could share measured MIC Streptococcus pneumoniae (ATCC 6301) for these entries.

• CC(c1ccccc1)C1NC(=O)CNC(=O)C(CO)NC(=O)C(C(O)C2CNC(=N)N2C2OC(CO)C(O)C(O)C2O)NC(=O)C(C(O)C2CNC(=N)N2)NC(=O)C(Cc2ccc(OC3OC(CO)C(OC4OC5COC(C)(c6ccc(F)cc6)OC5C(O)C4O)C(O)C3O)cc2)NC1=O (centres unmarked) = 0.25 µg/mL

Turning now to a further record.
The measured MIC Streptococcus pneumoniae (ATCC 6301) associated with CC(c1ccccc1)C1NC(=O)CNC(=O)C(CO)NC(=O)C(C(O)C2CNC(=N)N2C2OC(CO)C(O)C(O)C2O)NC(=O)C(C(O)C2CNC(=N)N2)NC(=O)C(Cc2ccc(OC3OC(CO)C(OC4OC(CO)C(OCC=C(c5ccccc5)c5ccccc5)C(O)C4O)C(O)C3O)cc2)NC1=O (centres unmarked) [Example 241a] reads <0.06 µg/mL

The measurements presented in this section are drawn from patent US8247211B2.
